Numbers sourced from the supplement of paper PMC3545927.

# Target Entity: furin, P09958;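 further: purified furin at 1:10 enzyme:substrate in 50 mM HEPES pH 7.5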
# Sequence (P09958 whole entry): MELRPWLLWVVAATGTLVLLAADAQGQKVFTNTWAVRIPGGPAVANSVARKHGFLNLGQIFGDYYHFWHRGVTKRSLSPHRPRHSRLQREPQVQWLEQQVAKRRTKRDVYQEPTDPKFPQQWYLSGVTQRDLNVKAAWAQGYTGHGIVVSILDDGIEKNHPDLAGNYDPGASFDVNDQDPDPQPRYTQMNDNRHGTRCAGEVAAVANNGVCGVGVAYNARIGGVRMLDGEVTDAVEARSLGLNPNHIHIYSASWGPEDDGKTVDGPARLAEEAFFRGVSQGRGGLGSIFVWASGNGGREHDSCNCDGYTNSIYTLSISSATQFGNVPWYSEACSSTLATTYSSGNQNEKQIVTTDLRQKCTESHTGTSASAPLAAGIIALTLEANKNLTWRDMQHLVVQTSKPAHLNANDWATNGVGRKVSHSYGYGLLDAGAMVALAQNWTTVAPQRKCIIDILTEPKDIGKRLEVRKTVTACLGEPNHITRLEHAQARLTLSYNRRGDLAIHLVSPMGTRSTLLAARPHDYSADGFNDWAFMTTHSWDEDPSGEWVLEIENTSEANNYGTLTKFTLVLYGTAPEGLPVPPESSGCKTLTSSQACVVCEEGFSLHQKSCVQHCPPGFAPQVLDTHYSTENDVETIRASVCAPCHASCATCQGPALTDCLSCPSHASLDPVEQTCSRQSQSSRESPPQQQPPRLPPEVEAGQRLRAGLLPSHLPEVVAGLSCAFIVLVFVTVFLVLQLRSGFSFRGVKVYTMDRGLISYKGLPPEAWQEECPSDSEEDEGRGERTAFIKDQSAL
# Assay Overview: furin cleavage Z-score vs untreated control; higher = more cleavage, active = 3.5 or more, inactive = 1 or less, 8 variable residues between constant flanks
# Test Parameters: 7.5 min
Some of the results follow. The true hit rate is not given.
sequences and their reported furin cleavage Z-score

# Chain, furin cleavage Z-score
data = [
    ("CALSHRSKRSAGNASASA [FS-1031]", 12.7),
    ("CARSARSPPGAGNASASA [FS-3074]", -0.433),
    ("CARSPRSPPGAGNASASA [FS-3091]", 2.88),
    ("CATTPCSGEWAGNASASA [HC1912]", -1.69),
    ("CARSKRCSCSAGNASASA [FS-2809]", 0.463),
    ("CAETITLPQDAGNASASA [HC897]", -1.02),
    ("CALLLALPQRAGNASASA [HC560]", -0.644),
]
